targetOrSystem: TAS2R40 (Homo sapiens, UniProt P59535)
Sequence (P59535 whole entry): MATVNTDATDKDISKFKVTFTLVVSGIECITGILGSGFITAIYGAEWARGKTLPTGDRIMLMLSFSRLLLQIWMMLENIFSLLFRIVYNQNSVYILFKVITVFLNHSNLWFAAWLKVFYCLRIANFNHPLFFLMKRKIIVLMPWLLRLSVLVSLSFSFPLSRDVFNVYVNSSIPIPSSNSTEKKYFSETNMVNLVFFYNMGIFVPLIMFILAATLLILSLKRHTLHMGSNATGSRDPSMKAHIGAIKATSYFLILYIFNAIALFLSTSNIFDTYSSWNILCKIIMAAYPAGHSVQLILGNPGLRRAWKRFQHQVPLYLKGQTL
assay: Calcium mobilization assay, HEK293T-Gα16gust44 cells expressing TAS2R40
testContext: maximal concentration tested: sucralose 100 mM, neotame 30 µM, Ace-K 300 mM, RebA 4 mM, RebM 4 mM, mogroside V 5 mM, erythritol 200 mM, D-allulose 500 mM, thaumatin 100 mM
parameter: Response of TAS2R40

* C=C1C[C@@]23CC[C@H]4[C@@](C)(CCC[C@@]4(C)C(=O)O[C@@H]4O[C@H](CO)[C@@H](O)[C@H](O[C@@H]5O[C@H](CO)[C@@H](O)[C@H](O)[C@H]5O)[C@H]4O[C@@H]4O[C@H](CO)[C@@H](O)[C@H](O)[C@H]4O)[C@@H]2CC[C@]1(O[C@@H]1O[C@H](CO)[C@@H](O)[C@H](O[C@@H]2O[C@H](CO)[C@@H](O)[C@H](O)[C@H]2O)[C@H]1O[C@@H]1O[C@H](CO)[C@@H](O)[C@H](O)[C@H]1O)C3 [RebM, Rebaudioside M] | −

Where do these numbers come from? They come from paper PMC11631053.
